Entry source: patent US20230241071A1

Here we list molecules with their recorded pIC50 when tested on BCRP (Homo sapiens).
Sequence (Q9UNQ0 whole entry): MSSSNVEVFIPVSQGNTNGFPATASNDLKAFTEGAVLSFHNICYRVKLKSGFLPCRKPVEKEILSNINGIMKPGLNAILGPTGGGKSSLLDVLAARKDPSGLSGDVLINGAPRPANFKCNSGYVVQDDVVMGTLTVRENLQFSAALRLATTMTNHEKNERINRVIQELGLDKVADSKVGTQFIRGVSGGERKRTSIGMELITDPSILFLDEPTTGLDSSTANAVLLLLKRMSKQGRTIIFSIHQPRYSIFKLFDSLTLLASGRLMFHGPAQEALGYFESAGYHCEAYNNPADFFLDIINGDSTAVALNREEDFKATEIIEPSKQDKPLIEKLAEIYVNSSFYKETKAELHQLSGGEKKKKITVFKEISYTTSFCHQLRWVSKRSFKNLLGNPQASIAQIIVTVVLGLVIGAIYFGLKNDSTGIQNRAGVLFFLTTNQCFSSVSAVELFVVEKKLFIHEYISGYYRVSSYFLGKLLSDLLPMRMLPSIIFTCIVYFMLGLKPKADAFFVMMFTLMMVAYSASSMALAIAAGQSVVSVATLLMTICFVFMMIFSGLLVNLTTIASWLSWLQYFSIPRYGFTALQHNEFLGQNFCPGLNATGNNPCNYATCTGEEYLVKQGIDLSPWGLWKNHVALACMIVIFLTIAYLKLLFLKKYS
FYI, pIC50 means -log10 of a concentration in mol per litre.

*Q* Given N#Cc1nn(-c2cc(Cl)c(Oc3n[nH]c(=O)c4ccccc34)c(Cl)c2)c(=O)[nH]c1=O , state its recorded pIC50.
*A* 5.03

*Q* Given Cn1cc(C(=O)O)c2ccc(N3CCC(OCc4c(-c5c(Cl)cccc5Cl)noc4C4CC4)CC3)cc21 , state its recorded pIC50.
*A* 5.36

###

test: Multiple-ascending dose trial of Compound 2 in healthy participants; type: in vivo, human; conditions: human, plasma, oral; Day 14, 10 mg QD
measurement.type: Cmax

*Q* Given N#Cc1nn(-c2cc(Cl)c(Oc3n[nH]c(=O)c4ccccc34)c(Cl)c2)c(=O)[nH]c1=O , state its recorded Cmax.
*A* 996 ng/mL
